Assay: BET inhibitor-based combinations targeting novel dependencies in MECOM-rearranged (r) AML: SET-2 cell line (AID 2202231);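 note: plate controls were DMSO treated cells for no effect and wells without cells for full effect; nearly all actives have a fitted effect of over 35% in size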
Settings: SET-2 AML cells viability, CellTiter-Glo luminescence, 48 h; hits give low values, concentration not given here
Results filed as inconclusive are left out.
Below, each entry is listed alongside its reported viability.
Only the number, expressed in %, is required.

For orientation, consider the following solved cases.
CC(C)(C)C(=O)Oc1ccc(S(=O)(=O)Nc2ccccc2C(=O)NCC(=O)O)cc1    111
CCC(C)(C)c1ccc(CC(C)CN2C[C@@H](C)O[C@@H](C)C2)cc1 (stereo partly drawn)    82.6
C=Cc1c(C)c2cc3nc(cc4[nH]c(cc5nc(cc1[nH]2)C(C)=C5CCC(=O)O)c(CCC(=O)OC)c4C)[C@@]1(C)C3=CC=C(C(=O)OC)[C@H]1C(=O)OC    97.6
Cn1c(CNc2ccc(C(=N)N)cc2)nc2cc(C(=O)N(CCC(=O)O)c3ccccn3)ccc21    116
CC1(C)O[C@@H]2C[C@H]3[C@@H]4CCC5=CC(=O)C=C[C@]5(C)[C@@]4(F)[C@@H](O)C[C@]3(C)[C@]2(C(=O)CO)O1    115
COc1ccc2[nH]c(S(=O)Cc3ncc(C)c(OC)c3C)nc2n1 (stereo not drawn)    109
Cc1c(NC(=O)c2cc(C(N)=O)nc3cc(F)ccc23)c(C(F)(F)F)nn1Cc1ccc(C#N)cc1    101

Okay, next one:
**Q:** Give the measured viability of Cc1cccc(-c2nn(C(=S)Nc3ccccc3)cc2-c2ccnc3ccccc23)n1 .
**A:** 97.5

---

Quick list: activation per entry.
Target: Cellular tumor antigen p53 (Homo sapiens)
Test: Primary qHTS for small molecule compounds that upregulate eGFP-tagged delta133p53alpha (in N-terminal) cells. (AID 2060322);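 note: cells pre-induced with doxycycline then dosed without doxycycline; 0% = DMSO vehicle and 100% = reference activator; nearly all actives have a fitted effect of over 75% in size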
Details: NCI-H358 eGFP-delta133p53alpha fluorescence, 24 h; hits give high values
Results filed as inconclusive are left out.
Please reply with the bare figure in % and do not write the unit itself.

Please review the entries below; each comes with its answer.
CCCCCCCCC(=O)N[C@H](CN1CCCC1)[C@H](O)c1ccc2c(c1)OCCO2    -1
C=CC(=O)N1CCN(C(=O)c2cc(-c3cc(Cl)ccc3Cl)c(Cl)cc2OC)CC1    -7.64

**Q:** What measured activation goes with COc1ccccc1N1CCN(CCCCN2C(=O)c3ccccc3C2=O)CC1 ?
**A:** -14.4

**Q:** Dear colleague, I am looking for the recorded activation of the following compound: C/C=C(/C)C(=O)O[C@H]1[C@H](OC(=O)/C(C)=C\C)[C@@]23C(CC1(C)C)[C@]1(CCC4[C@@]5(C)CC[C@H](O[C@@H]6O[C@H](C(=O)O)[C@@H](O)[C@H](O[C@@H]7O[C@H](CO)[C@H](O)[C@H](O)[C@H]7O[C@@H]7O[C@@H](C)[C@H](O)[C@@H](O)[C@H]7O[C@@H]7OC[C@@H](O)[C@H](O)[C@H]7O)[C@H]6O[C@@H]6O[C@H](CO)[C@H](O)[C@H](O)[C@H]6O)C(C)(C)C5CC[C@@]4(C)[C@]1(C)C[C@H]2O)O[C@H]3O (stereo partly specified)
**A:** -8.93

**Q:** // returns reported activation for input CC(=O)N1c2ccccc2C2(O)CC3C(=O)NC(CC(C)C)C(=O)N3C12 (stereo unspecified)
**A:** -32.8

**Q:** What value of measured activation is listed for O=C(/C=C/N1C[C@H]2C[C@@H]1CN2c1ccccn1)c1ccccc1O ?
**A:** 21.2

**Q:** Entry under review: CC(=O)O[C@@H]1CC2C(/C=C(\C)C(=O)[C@@]3(O)C[C@@H](C)[C@H](OC(=O)c4ccccc4)C3/C=C/1C)C2(C)C (stereo partly specified) . Reported activation?
**A:** -10.7

meta.source: PubChem BioAssay (NCATS)
